# Read-out: CD69, CD69 (gene 969)
# Measurement Protocol: BSK_SAg_CD69: BioMAP Diversity Plus: SAg Assay for CD69 Biomarker Activity (AID 2283089)
# Conditions Used: primary human HUVEC with PBMC; actives raise or lower the signal
Calls of active or inactive are those of the source. The calls were made as follows: active = hit-call score of the fitted dose curve at least 0.9, where 1 is the maximum; inactive = score below 0.9.
Respond with a class label; see y for active, n for inactive

Q. Could you please tell me the result logged for C1CN(CCOCCN2CCOCC2)CCO1 in this assay?
A. n

Q. Further, for CC(C)CC(=O)CC(C)CC(C)C (centres undefined) ?
A. n

Q. // same read-out, input: CCCCCCC(O)CCCCCCCCCCC(=O)OC (centres undefined)
A. n

***
Q. Could you check what this test reported for CCC(C)=NO ?
A. n

Q. Next entry: Cc1cc(-n2nc3ccc(Cl)cc3n2)c(O)c(C(C)(C)C)c1
A. n

Q. Same question for Oc1cccc2ccccc12 please.
A. n

Q. // next record COc1ccc(C(=O)c2ccccc2O)c(O)c1
A. n

Q. Lookup CCCCCCCCCC/C=C/C1CC(=O)OC1=O (centres undefined)
A. n

Q. Moving on to Cc1c(C(N)=O)cc([N+](=O)[O-])cc1[N+](=O)[O-]
A. n

Q. What about Sc1nc2ccccc2s1 ?
A. n

Q. Can you check COC(=O)/C=C\C(=O)OC next?
A. n

====

# Measured On: Glucocorticoid receptor (Homo sapiens)
# Measurement Protocol: ATG_GR_TRANS: Attagene TRANS-FACTORIAL HepG2 Assay for human Glucocorticoid Receptor (GR) (AID 2282978);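 also: activators score as hits since higher reporter transcript over DMSO is fitted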
# Conditions Used: HepG2 Attagene TRANS GR reporter, mRNA transcription
# Description: ATG_TRANS is a cell-based, multiplexed-readout assay that uses HepG2, a human liver cell line, with measurements taken at 24 hours after chemical dosing in a 24-well plate.ATG_GR_TRANS is one of 30 assay component(s) measured or calculated from the ATG_TRANS assay. […] This assay endpoint, ATG_GR_TRANS, was analyzed in the positive analysis fitting direction relative to DMSO as the negative control and baseline of activity. […]
Inconclusive results are not listed. Calls of active or inactive are those of the source. How the source made its calls: active means hit-call score of the fitted dose curve at least 0.9, where 1 is the maximum; inconclusive means response in the unintended direction; inactive means score below 0.9.
Your answer must be one of the following: true (1) (active), false (0) (inactive)

Reference set (5 entries):
Q. Short answer needed: outcome of this test for CC(C)=CCOC(=O)c1ccccc1 ?
A. false (0)

Q. And what about the molecule CC/C=C\CCCCCO ?
A. false (0)

Q. Likewise for NCc1ccccc1 ?
A. false (0)

Q. Queued: CCC(C)=NO
A. false (0)

Q. // same read-out, input: O=C(O)c1nc(Cl)c(Cl)c(Cl)c1Cl
A. false (0)

More entries:
Q. What was the test verdict on CCCCCCC(O)CCCCCCCCCCC(=O)OC (stereo not drawn) ?
A. false (0)

Q. Next up: CCCCNC(N)=O
A. false (0)

Q. How about O=C(c1ccccc1)c1ccccc1O ?
A. false (0)

Q. Try this molecule next: CC1(C)S[C@@H]2[C@H](NC(=O)[C@H](N)c3ccccc3)C(=O)N2[C@H]1C(=O)O
A. false (0)

Q. Cool, now COC(=O)CCSCCC(=O)OC
A. false (0)

Q. Try CC(=O)c1nccs1 next.
A. false (0)

Q. Next: CCC(C)C1N=C(C)C(C)S1 (stereo not drawn)
A. false (0)

Q. Then this molecule: NC(=O)c1ccc([N+](=O)[O-])cc1Cl
A. false (0)

Q. Now the same for CCCOCCC
A. false (0)

Q. Now try O=C1NC(=O)[C@@H]2CC=CC[C@H]12 .
A. false (0)

Q. Likewise for O=C(C1CCCCC1)N1CC(=O)N2CCc3ccccc3C2C1 (stereo not drawn) ?
A. false (0)

Q. Now the molecule CCCCC(CC)COC(=O)CS (stereo not drawn)
A. false (0)

Q. Input CCCCCCCC#N
A. false (0)

Q. Same lookup for COC(=O)/C=C\C(=O)OC , please.
A. false (0)

Q. Next entry: N#CCN(CC#N)CCN(CC#N)CC#N
A. false (0)

Q. What do you have for O=C(O)Cc1c[nH]c2ccccc12 ?
A. false (0)

Q. Same again, this time with CCOC(=O)CC(=O)OCC
A. false (0)

Q. Next molecule up: Cc1cc(-n2nc3ccc(Cl)cc3n2)c(O)c(C(C)(C)C)c1
A. false (0)

Q. Try this molecule next: O=C(O)c1ccccc1C(=O)O
A. false (0)

Q. Another molecule to look at: CCCc1c(OCCCCc2nn[nH]n2)ccc(C(C)=O)c1O
A. false (0)

Q. Same for Sc1nc2ccccc2s1
A. false (0)

Q. # iterate: Clc1ccc(Sc2cc(Cl)c(Cl)cc2Cl)cc1
A. false (0)

Q. Another molecule: CCO[Si](CCCN)(OCC)OCC
A. false (0)

Q. Lookup CC=CC(=O)O
A. false (0)

Q. Now the same for CC(C)CC(=O)O
A. false (0)

Q. Now give it for CCCCCCCCCC/C=C/C1CC(=O)OC1=O (stereo not drawn) too.
A. false (0)

====

# Measurement Protocol: ATG_TGFb_CIS: Attagene CIS-FACTORIAL HepG2 Assay for human Transforming Growth Factor (TGF) (AID 2282967)
# Conditions Used: HepG2 Attagene CIS TGFb reporter, mRNA transcription; actives raise or lower the signal
Calls of active or inactive are those of the source. The calls were made as follows: active = hit-call score of the fitted dose curve at least 0.9, where 1 is the maximum; inactive = score below 0.9.
Outcome (select one): Y (active), N (inactive)

Worked examples follow.
Q. Hi, do you know how O=C(C1CCCCC1)N1CC(=O)N2CCc3ccccc3C2C1 (stereo unspecified) came out in this test?
A. N

Q. Param item: CCCCCC1CCCC(=O)O1 (stereo unspecified)
A. N

Q. // repeat for C[C@H]1C[C@H]2[C@@H]3CCC4=CC(=O)C=C[C@]4(C)[C@@]3(F)[C@@H](O)C[C@]2(C)[C@@]1(O)C(=O)CO and report
A. N

Q. And for OCCc1ccccn1 ?
A. N

Next:
Q. Could you kindly confirm the outcome this assay logged for CC/C=C\CCCCCO ?
A. N

Q. Item: CCCCNC(N)=O
A. N

Q. Item: CO[Si](CCCNCCN)(OC)OC
A. N

Q. Next compound up: CC[N+](CC)(CC(=O)Nc1c(C)cccc1C)Cc1ccccc1 (tested in a mixture with another compound)
A. N

====

# Measurement Protocol: BSK_4H_Eotaxin3: BioMAP Diversity Plus: 4H Assay for Eotaxin 3 Biomarker Activity (AID 2283000)
# Conditions Used: primary human endothelial cells (HUVEC); actives raise or lower the signal
Activity calls are given as the source filed them. How the source made its calls: active means hit-call score of the fitted dose curve at least 0.9, where 1 is the maximum; inactive means score below 0.9.
The categories you may choose from are yes (1) for active, no (0) for inactive

Known results for molecules:
Q. What call does the record list for CC(C)C1OCCN1CCOC(=O)NCCCCCCNC(=O)OCCN1CCOC1C(C)C (stereo not drawn) ?
A. no (0)

Q. Queued: Cc1cc(-n2nc3ccc(Cl)cc3n2)c(O)c(C(C)(C)C)c1
A. no (0)

Q. Then CC[N+](CC)(CC(=O)Nc1c(C)cccc1C)Cc1ccccc1 ?
A. no (0)

Q. Proceed to Oc1cccc2ccccc12
A. yes (1)

Q. Same read-out for CN(C)CCC(c1ccc(Cl)cc1)c1ccccn1 (stereo not drawn) ?
A. no (0)

Q. Cool, now CCCCCCCCCC/C=C/C1CC(=O)OC1=O (stereo not drawn)
A. no (0)

Q. Record: C1CN(CCOCCN2CCOCC2)CCO1
A. no (0)

Others:
Q. // return assay outcome for CCCCCCCCCCC1CO1 (stereo not drawn)
A. yes (1)

====

# Measured On: Cellular tumor antigen p53 (Homo sapiens)
# Measurement Protocol: TOX21_p53_BLA_p5_ratio: Tox21 HCT-116 p53 Agonism Beta-lactamase Assay, Ratio, Phase 5 (AID 2283599)
Inconclusive results are not listed. The source made the active and inactive calls. Rule for the calls: active = hit-call score of the fitted dose curve at least 0.9, where 1 is the maximum; inconclusive = response in the unintended direction; inactive = score below 0.9.
Valid outcomes are listed here; reply with one: True (active), False (inactive)

Completed entries (count: 10):
Q. # lookup: test call for Nc1c2c(nc3c1CCC3)CCCC2
A. False

Q. And then CCc1c2c(nc3ccc(OC(=O)N4CCC(N5CCCCC5)CC4)cc13)-c1cc3c(c(=O)n1C2)COC(=O)[C@]3(O)CC , what is it?
A. True

Q. Again, but for CC1=CC(=C(c2ccc(N)cc2)c2ccc(N)cc2)C=CC1=N
A. False

Q. Now try CC1=NS(=O)(=O)c2cc(Cl)ccc2N1 .
A. False

Q. Please answer likewise for Nc1ccc(S(=O)(=O)Nc2ccc(Cl)nn2)cc1
A. False

Q. Thanks! And C=C1/C(=C\C=C2/CCC[C@]3(C)[C@@H]([C@H](C)CCCC(C)(C)O)CC[C@@H]23)C[C@@H](O)C[C@@H]1O ?
A. True

Q. Now this one: O=[N+]([O-])c1c(Cl)cccc1-c1c[nH]cc1Cl
A. False

Q. Entry to check: CN1CCN(CCC=C2c3ccccc3Sc3ccc(S(=O)(=O)N(C)C)cc32)CC1
A. False

Q. Please do the same for CNC(=O)c1ccccc1Sc1ccc2c(/C=C/c3ccccn3)n[nH]c2c1 as well.
A. True

Q. Next record, please: OC[C@H]1O[C@@H](O[C@@H]2[C@@H](CO)O[C@](O)(CO)[C@H]2O)[C@H](O)[C@@H](O)[C@H]1O
A. False

New cases:
Q. Test call, this compound: NC(N)=NCc1cccc(I)c1
A. False

Q. Try this compound too: Nc1ncnc2c1ncn2[C@H]1CC[C@@H](CO)O1
A. False

Q. Try the compound CC/C=C\CC/C=C/C(OCC)OCC
A. False

Q. Moving on to O=C(Nc1ccc(Br)cc1)c1cc(Br)c(Br)s1
A. True

Q. Lookup FC(F)OC(Cl)C(F)(F)F (configuration not stated)
A. False

Q. Oc1ccc(Cl)c2cccnc12 , same question.
A. False

Q. Again, but for CC(C(=O)O)c1ccc(C2CCCCC2)c2ccccc12 (configuration not stated)
A. False

Q. What do you have for CO[C@H]1C[C@@H]2CC[C@@H](C)[C@@](O)(O2)C(=O)C(=O)N2CCCC[C@H]2C(=O)O[C@H]([C@H](C)C[C@@H]2CC[C@@H](OCCO)[C@H](OC)C2)CC(=O)[C@H](C)/C=C(\C)[C@@H](O)[C@@H](OC)C(=O)[C@H](C)C[C@H](C)\C=C/C=C/C=C/1C ?
A. True

Q. Follow-up entry: Cc1c(C(N)=O)cc([N+](=O)[O-])cc1[N+](=O)[O-]
A. False

Q. Okay, and CCCC/C=C/CCCCO ?
A. False

Q. Thanks! And NCCO/C=C/[C@H](N)C(=O)O ?
A. False

Q. Now try Cc1c(O)c(=O)ccn1C .
A. False
